target: WEE1 (Homo sapiens, UniProt P30291); construct: purchased Thermo Fisher PR7373A; test: Selectivity versus WEE1 assay (ADP-Glo enzymatic assay); type: biochemical; conditions: fold difference in selectivity for PKMYT1 over WEE1; banded; ">N" = at least in this band but could be higher
Sequence (P30291 whole entry): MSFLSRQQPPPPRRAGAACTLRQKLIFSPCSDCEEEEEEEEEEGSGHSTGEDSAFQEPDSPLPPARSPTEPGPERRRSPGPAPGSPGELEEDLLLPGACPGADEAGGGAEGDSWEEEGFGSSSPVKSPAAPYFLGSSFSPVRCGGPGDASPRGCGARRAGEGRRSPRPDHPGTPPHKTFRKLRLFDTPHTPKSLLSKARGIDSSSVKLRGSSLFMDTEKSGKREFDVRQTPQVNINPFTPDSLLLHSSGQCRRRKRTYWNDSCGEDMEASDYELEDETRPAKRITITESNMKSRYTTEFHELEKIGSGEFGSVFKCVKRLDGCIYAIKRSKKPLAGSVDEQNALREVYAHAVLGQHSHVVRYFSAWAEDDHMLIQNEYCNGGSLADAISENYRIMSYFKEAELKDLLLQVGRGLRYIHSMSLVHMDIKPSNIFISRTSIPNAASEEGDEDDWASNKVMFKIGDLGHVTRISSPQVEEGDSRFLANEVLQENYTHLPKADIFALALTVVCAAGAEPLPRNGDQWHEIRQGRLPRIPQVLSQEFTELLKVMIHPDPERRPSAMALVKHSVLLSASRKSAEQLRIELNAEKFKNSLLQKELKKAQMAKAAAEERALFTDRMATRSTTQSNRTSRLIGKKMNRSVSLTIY
ENDPOINT_LABEL: PKMYT1 vs. WEE1 selectivity

Record excerpt, results attached:
* Cc1ccc(O)c(C)c1NC(=O)c1cnc(Nc2cccc(C(=O)N3CC4CCC3C4)c2)s1 (stereo not drawn) | X (100-<1000 fold)
* Cc1ccc(O)c(C)c1NC(=O)c1cnc(NCC2CCN(C(=O)OC(C)(C)C)CC2)s1 | >X (100-<1000 fold)
* Cc1ccc(O)c(C)c1NC(=O)c1cnc(Nc2ccn([C@@H]3CCN(CCc4ccccc4)C3)n2)s1 | >X (100-<1000 fold)
* COC(=O)CCC(=O)N1CC[C@@H](n2ccc(Nc3ncc(C(=O)Nc4c(C)ccc(O)c4C)s3)n2)C1 | >X (100-<1000 fold)
* Cc1cn(-c2cccnc2)nc1Nc1ncc(C(=O)Nc2c(C)ccc(O)c2C)s1 | X (100-<1000 fold)

Consider now this further molecule.
Query :: // query PKMYT1 vs. WEE1 selectivity value for entry Cc1ccc(O)c(C)c1NC(=O)c1cnc(Nc2ccn(CC(=O)N3CCN(C(=O)OC(C)(C)C)C(C)(C)C3)n2)s1
Result :: X (100-<1000 fold)

Origin of values: patent US20260297042A1
